The reported numbers originate from PubChem BioAssay.

Assay: reversal of MRP1-mediated doxorubicin resistance, pilot screen, H69AR cells, doxorubicin co-treatment (AID 601)
Conditions: H69AR cells, CellTiter-Glo, 72 h; compound alone cytotoxicity; at 10 µM

{"columns": ["molecule", "viability [%]"],
 "data": [
  ["CCOC(=O)N1CCC(NC(=O)C2CCC(Cn3c(=O)[nH]c4ccccc4c3=O)CC2)CC1 (configuration not stated)", 16.8],
  ["CCOC(=O)C1CCCN(C(=O)Cc2ccc(OC)c(OC)c2)C1 (configuration not stated)", 94.5],
  ["CC(=O)Nc1ccccc1OCC(=O)c1cc(C)n(Cc2cccs2)c1C", 85.8],
  ["CCOC(=O)Cc1cc(=O)n2[nH]c(C)c(-c3ccc(OC)cc3)c2n1", 92.6],
  ["COc1cccc(C=Nc2ccc3c(c2)OCCO3)c1O", 83],
  ["Cc1ccc(CC2SC(=O)NC2=O)cc1Cl (configuration not stated)", 92.7],
  ["COCc1[nH]nc2c1C(c1cc(OC)c(O)c(OC)c1)C(C#N)=C(N)O2 (configuration not stated)", 93],
  ["C=CCn1c(SCC(=O)Nc2cccc(OC)c2)nnc1-c1cccnc1", 95.4],
  ["COc1ccc(-c2noc(CCCOc3ccccc3)n2)cc1OC", 93.7],
  ["CCn1c(SCC(=O)Nc2cc(C)on2)nc2sc3c(c2c1=O)CCCC3", 12.6],
  ["CCOC(=O)c1sc2nc(SCC#N)n(CCCN3CCCC3=O)c(=O)c2c1C", 75.8],
  ["O=C(Nc1ccc(NC(=O)C2CC2)cn1)c1ccccc1Cl", 98.5],
  ["O=C(CN1CCCN(S(=O)(=O)c2ccc(F)cc2)CC1)Nc1ccccc1Br", 76.3],
  ["CCCOc1ccc(N2C(=O)CC(SCCN)C2=O)cc1 (configuration not stated)", 108],
  ["Cc1ccc(NC(=O)c2oc3ccc(S(=O)(=O)N4CCOCC4)cc3c2C)cc1C", 43.4],
  ["CCc1[nH]nc2c1C1(CCN(C(=O)OCc3ccccc3)CC1)C(C#N)=C(N)O2", 85.2],
  ["CNCCC=C1c2ccccc2CCc2ccccc21", 80.1]
]}
